- System: Plasmodium falciparum
- protocol_notes: Screen against P. falciparum Asexual Blood Stage (ABS), at 5uM
- Format: functional, Dd2
- experimental_parameters: tested at 5 uM
About 2,100 (3.2%) of roughly 65,000 compounds showed an effect of 50% or more. The median lay at about -52%. This is one part of a sample in which strong results are shown more often than they occur.
Reported INHIBITION values follow for various compounds
Number first, unit second: that is the form wanted.

Example results:
COc1ccccc1OCC(=O)N1CCN(Cc2noc(C)n2)CC1; -68.9%
CN1CC2(CCNCC2)CC1C(=O)NCCCNc1cccnc1 (stereo not drawn); -62%
CCOCCCNC(=O)c1cn(C(C)(C)C)c2ncccc12; -151%

Attention now turns to another entry.
Data request: If you can, please state the reported INHIBITION value of Cn1nc(CN2CCCCC(N)C2)c2c(Cl)cccc21 (stereo not drawn) .
Data returned: 66.2%
